The origin of these recorded values is paper PMC12064818.

# key: entry, value: FLuc Enzyme
Molecular target: FLuc-C-HiBiT (firefly luciferase) (Photinus pyralis, UniProt P08659, form not given/L550V)
Sequence (P08659 2-550 L550V, form open): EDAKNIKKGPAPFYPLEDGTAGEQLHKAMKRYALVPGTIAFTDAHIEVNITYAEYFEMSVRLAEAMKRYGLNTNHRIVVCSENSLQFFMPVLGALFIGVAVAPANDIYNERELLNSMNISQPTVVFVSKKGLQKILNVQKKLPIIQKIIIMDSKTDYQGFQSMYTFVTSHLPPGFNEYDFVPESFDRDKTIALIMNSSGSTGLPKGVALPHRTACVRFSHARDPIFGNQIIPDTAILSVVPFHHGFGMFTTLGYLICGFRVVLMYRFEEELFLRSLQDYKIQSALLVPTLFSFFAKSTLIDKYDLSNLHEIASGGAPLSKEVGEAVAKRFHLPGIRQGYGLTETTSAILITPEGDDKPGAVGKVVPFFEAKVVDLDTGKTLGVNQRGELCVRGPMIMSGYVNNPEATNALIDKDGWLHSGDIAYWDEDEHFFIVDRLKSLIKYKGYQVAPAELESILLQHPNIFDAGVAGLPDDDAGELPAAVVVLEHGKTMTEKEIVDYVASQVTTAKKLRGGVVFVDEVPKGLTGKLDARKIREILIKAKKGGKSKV
Assay: Firefly luciferase (FLuc) enzymatic luminescence assay, FLuc-C-HiBiT
Type: biochemical
Parameters: key: % normalized; no enzyme control = 100% inhibition, DMSO = 0
Conditions: 10 nM FLuc-C-HiBiT; normalized activity; Log [Compound], M -6.87
A bare number is all that is needed in reply.

Here's what some known entries look like.
{"columns": ["COMPOUND", "TESTED_TARGET", "FLuc Enzyme"],
 "data": [
  ["O=C(O)CCSc1nnc(-c2ccc(Cl)cc2Cl)o1", "FLuc-C-HiBiT (firefly luciferase) (Photinus pyralis, UniProt P08659, form not given/L550V)", -18.0],
  ["CC1CCCN(c2ncnc3c2cnn3-c2ccccc2)C1 (centres unmarked)", "FLuc-C-HiBiT (firefly luciferase) (Photinus pyralis, UniProt P08659, form not given/L550V)", -13.5],
  ["COc1ccc(-c2nc(-c3ccc(C(=O)O)cc3)no2)cc1", "FLuc-C-HiBiT (firefly luciferase) (Photinus pyralis, UniProt P08659, form not given/L550V)", -53.0],
  ["Cc1ccc(-n2ncc3c(N4CCCCCC4)ncnc32)cc1", "FLuc-C-HiBiT (firefly luciferase) (Photinus pyralis, UniProt P08659, form not given/L550V)", -37.3]
]}

Continue with the next compound.
Prompt: Endpoint output: FLuc Enzyme of O=C(O)c1cccc2c1CCN2C(=O)Nc1ccc(F)cc1 . Value?
Response: -92.3

* * *

# key: entry, value: IC50
Target: FLuc-C-HiBiT (Photinus pyralis, UniProt P08659)
Construct: firefly luciferase with C-terminal HiBiT tag, E. coli expressed
Assay: biochemical
Conditions: enzyme activity, 10 uM ATP; read-out: IC50 or SDR50 (mM) / FLuc E
The figure you give is taken to be in mM; do not add the unit.

Here's what some known entries look like.
{"columns": ["CPD_SMILES", "TESTED_TARGET", "MEASURED_ENDPOINT", "TEST_RESULT"],
 "data": [
  ["O=C(Nc1cc(F)cc(F)c1)Nc1cccc(-c2ccc(N3CCOCC3)nn2)c1", "FLuc-C-HiBiT (Photinus pyralis, UniProt P08659)", "IC50", 0.00313],
  ["COc1ccc(-c2cn3nc(SCC(=O)Nc4cc(C)cc(C)c4)ccc3n2)cc1", "FLuc-C-HiBiT (Photinus pyralis, UniProt P08659)", "IC50", 0.00556],
  ["CCNC(=O)N[C@@H]1C=C[C@@H](c2c(C)nn(-c3ccc(C(F)(F)F)cc3)c2C)C1", "FLuc-C-HiBiT (Photinus pyralis, UniProt P08659)", "IC50", 0.0143],
  ["O=C(Nc1ccc2c(c1)OCO2)c1cccc2c1CCN2C(=O)Nc1ccc(F)cc1", "FLuc-C-HiBiT (Photinus pyralis, UniProt P08659)", "IC50", 0.000197],
  ["COc1ccc(-c2cc3c(cn2)CN(Cc2cccnc2)CCN3)cc1OC", "FLuc-C-HiBiT (Photinus pyralis, UniProt P08659)", "IC50", 0.0143]
]}

Prompt: Endpoint output: IC50 of CCNC(=O)N1CC(Oc2ccc(-c3nc(-c4ccccc4)no3)cc2)C1 . Value?
Response: 0.00556

* * *

# key: entry, value: IC50
Molecular target: FLuc-C-HiBiT (Photinus pyralis)
Construct: firefly luciferase with C-terminal HiBiT tag, E. coli expressed
Experiment: biochemical
Details: enzyme activity, 10 uM ATP; read-out: IC50 or SDR50 (mM) / FLuc E
Method: The enzyme activity of FLuc-N-HiBiT, FLuc-C-HiBiT, and FLuc-C-NLuc was measured similar to P. pyralis firefly luciferase (FLuc) as previously described. […] Compounds and controls were added to each plate as described in Supplementary Data 8 with a Hornet pintool system (Wako Automation). […] Luciferin was incubated with FLuc enzyme for 5 min before FLuc activity was then measured on a ViewLux CCD imager (PerkinElmer), with exposure times up to ten seconds with medium to high gain settings. […]
The figure you give is taken to be in mM; do not add the unit.

Here's what some known entries look like.
{"columns": ["MOLECULE", "IC50 / mM"],
 "data": [
  ["Cc1ccc(/C=C/c2nc3ccccc3n2S(=O)(=O)c2cccc(Cl)c2)cc1", 0.000124],
  ["COc1cccc(CNC(=O)N2c3ccccc3CC2c2noc(C3CCOCC3)n2)c1 (stereo not drawn)", 0.00989]
]}

Continue with the next molecule.
Prompt: Endpoint output: IC50 of COc1cccc(CC(=O)Nc2ccc(-c3nc4ccccc4s3)cc2)c1 . Value?
Response: 0.00881

* * *

Target: FLuc-C-HiBiT (Photinus pyralis)
Construct: firefly luciferase with C-terminal HiBiT tag, E. coli expressed
Assay: biochemical
Conditions: enzyme activity, 10 uM ATP; read-out: IC50 or SDR50 (mM) / FLuc E
# key: entry, value: IC50
The figure you give is taken to be in mM; do not add the unit.

Here's what some known entries look like.
{"columns": ["CPD_SMILES", "TESTED_TARGET", "TEST_RESULT"],
 "data": [
  ["c1ccc(CNc2cc(-c3cc(N4CCCCC4)ncn3)c3cc[nH]c3n2)nc1", "FLuc-C-HiBiT (Photinus pyralis)", 0.00989],
  ["COc1cccc(Nc2nc(-c3ccccc3)no2)c1", "FLuc-C-HiBiT (Photinus pyralis)", 0.00624],
  ["Clc1cccc(-c2nc(-c3ccccn3)no2)c1", "FLuc-C-HiBiT (Photinus pyralis)", 0.000989]
]}

Continue with the next compound.
Prompt: Endpoint output: IC50 of O=C(O)c1ccc(-c2noc(-c3cccc(C(F)(F)F)c3)n2)cc1 . Value?
Response: 0.00881

* * *

Target: PKA-N-HiBiT (Homo sapiens, UniProt P17612)
Assay: SDR assay, PKA-N-HiBiT
Where a name gives a salt, the structure may show the parent alone.
# key: entry, value: log10 EC50
Log10 applied to EC50; unit prior to transform: µM.

Here's what some known entries look like.
{"columns": ["MOLECULE", "log10 EC50"],
 "data": [
  ["N[C@H]1CC[C@H](Nc2nc(Nc3ccc(C(=O)N4CCCCC4)cc3)c3ncn(-c4cccc(F)c4)c3n2)CC1", 2.07],
  ["Oc1ccc(-c2ccc(-c3cc(Nc4cccc(CNC5CC5)c4)n[nH]3)cc2)c(O)c1", 1.24],
  ["COc1cc(N2CCC(N3CCN(C)CC3)CC2)ccc1Nc1ncc(Cl)c(Nc2ccccc2P(C)(C)=O)n1", 0.93]
]}

Prompt: Endpoint output: log10 EC50 of CN1CCN(Cc2ccc(-c3cnc4[nH]cc(-c5ccc6[nH]ccc6c5)c4c3)cc2)CC1 . Value?
Response: 2.36

Prompt: Then what about the molecule O=C(Nc1c[nH]nc1-c1nc2ccc(CN3CCOCC3)cc2[nH]1)NC1CC1 ?
Response: -1.36

Prompt: Then what about the molecule CC[C@@](C)(Nc1ccnc(-c2c[nH]c3ncccc23)n1)C(=O)NCC(F)(F)F ?
Response: 1.20

Prompt: Then what about the molecule CN(c1ncccc1CNc1nc(Nc2ccc3c(c2)CC(=O)N3)ncc1C(F)(F)F)[S+](C)(=O)[O-] [PF-562271 HCl] ?
Response: 0.60

Prompt: Then what about the molecule Cc1cccc(C)c1-n1c(=O)c2cnc(Nc3ccc(N4CCN(C)CC4)cc3)nc2n2c3ccccc3nc12 ?
Response: 0.66

* * *

# key: entry, value: SDR + 10 mM ATP
Target: FLuc-C-NLuc (firefly luciferase) (Photinus pyralis, UniProt P08659, form not given/L550V)
Sequence (P08659 2-550 L550V, form open): as above
Assay: SDR assay, FLuc-C-NLuc
Settings: 1 nM FLuc-C-NLuc; normalized activity; Log [Compound], M -5.44
A bare number is all that is needed in reply.

Here's what some known entries look like.
{"columns": ["MOLECULE", "TESTED_TARGET", "SDR + 10 mM ATP"],
 "data": [
  ["CNC(=O)c1cccc2c1CCN2C(=O)Nc1ccc(C)cc1 [compound 00430160]", "FLuc-C-NLuc (firefly luciferase) (Photinus pyralis, UniProt P08659, form not given/L550V)", 50.4],
  ["COc1ccc(-c2nc(-c3ccc(C(=O)O)cc3)no2)cc1 [compound 00168104]", "FLuc-C-NLuc (firefly luciferase) (Photinus pyralis, UniProt P08659, form not given/L550V)", 52.0],
  ["CC(CNC(=O)C1CCN(C(=O)c2ncn3c2COC(c2ccccc2)C3)CC1)c1ccccc1 (centres unmarked) [compound 00449795]", "FLuc-C-NLuc (firefly luciferase) (Photinus pyralis, UniProt P08659, form not given/L550V)", 30.7],
  ["Cc1ccc(-n2ncc3c(N4CCCCCC4)ncnc32)cc1 [compound 00139018]", "FLuc-C-NLuc (firefly luciferase) (Photinus pyralis, UniProt P08659, form not given/L550V)", 22.4],
  ["CC1CCCN(c2ncnc3c2cnn3-c2ccccc2)C1 (centres unmarked) [compound 00081381]", "FLuc-C-NLuc (firefly luciferase) (Photinus pyralis, UniProt P08659, form not given/L550V)", 19.7],
  ["O=C(O)c1cccc2c1CCN2C(=O)Nc1ccc(F)cc1 [compound 00432687]", "FLuc-C-NLuc (firefly luciferase) (Photinus pyralis, UniProt P08659, form not given/L550V)", 64.3],
  ["O=C(O)CCSc1nnc(-c2ccc(Cl)cc2Cl)o1 [compound 00103142]", "FLuc-C-NLuc (firefly luciferase) (Photinus pyralis, UniProt P08659, form not given/L550V)", 38.8]
]}

Continue with the next molecule.
Prompt: Endpoint output: SDR + 10 mM ATP of Fc1ccc(-c2cn3cc(Cc4ccccc4)sc3n2)cc1 [compound 00102110] . Value?
Response: 15.2
